Species on record: Rattus norvegicus
Experiment: Open TG-GATES - Regimen: Single
Type: toxicity, organism-based, Sprague-Dawley
Design: regimen Single, gender Male, age 6 weeks
Settings: in vivo, po, 10 mg/kg, 24 h, tissue Plasma, route gavage, dose level Low
Measured attribute: AST (IU/L)

Compound | Measure unit | Val
CN(C)CCCN1c2ccccc2CCc2ccc(Cl)cc21 | IU/L | 74.4
CC1=C(/C=C/C(C)=C/C=C/C(C)=C/CO)C(C)(C)CCC1 | IU/L | 78.4
CN(C)CCN(Cc1cccs1)c1ccccn1 | IU/L | 69.6
CN(C)CCCN1c2ccccc2CCc2ccccc21 | IU/L | 80.8
CC(C)OC(=O)C(C)(C)Oc1ccc(C(=O)c2ccc(Cl)cc2)cc1 [FENOFIBRATE] | IU/L | 76.8
